Entries and their measured clearance follow.
- experiment: Half-lives and pharmacokinetic parameters of polypeptides vs HM-1
- condition context: in vivo
Peptide text beside a SMILES is read from it. * marks the point of attachment. X41 = O=C1C=CC(=O)N1c1ccc(CCCCCCCCCCCCC(=O)*)cc1; X69 = O=C1C=CC(=O)N1c1ccc(CCCCC(=O)*)cc1; X15 = O=C1C=CC(=O)N1CCOCCOCCOCCC(=O)*; X76 = O=C1C=CC(=O)N1CCOCCCCCCCC(=O)*; X30 = O=C1C=CC(=O)N1CCOCCOCC(=O)*; X83 = O=C1C=CC(=O)N1CCCCCCC(=O)*
// units = mL/min/kg; emit number, no label

* C[C@H](NC(=O)CNC(=O)[C@H](CCCNC(=N)N)NC(=O)CCCCCCN1C(=O)C=CC1=O)C(=O)N[C@@H](CC(=O)O)C(=O)N[C@@H](CCCNC(=N)N)C(=O)N[C@@H](C)C(=O)NCC(=O)NCC(=O)NCC(=O)NCC(=O)N[C@@H](CCCNC(=N)N)C(=O)NCC(=O)N[C@@H](CC(=O)O)C(=O)O [X6] (X83-RGADRAGGGGRGD-OH) | 0.547
* C[C@H](NC(=O)CNC(=O)[C@H](CCCNC(=N)N)NC(=O)COCCOCCN1C(=O)C=CC1=O)C(=O)N[C@@H](CC(=O)O)C(=O)N[C@@H](CCCNC(=N)N)C(=O)N[C@@H](C)C(=O)NCC(=O)NCC(=O)NCC(=O)NCC(=O)N[C@@H](CCCNC(=N)N)C(=O)NCC(=O)N[C@@H](CC(=O)O)C(=O)O [X56] (X30-RGADRAGGGGRGD-OH) | 0.507
* C[C@H](NC(=O)CNC(=O)[C@H](CCCNC(=N)N)NC(=O)CCCCCCCCCCCCc1ccc(N2C(=O)C=CC2=O)cc1)C(=O)N[C@@H](CC(=O)O)C(=O)N[C@@H](CCCNC(=N)N)C(=O)N[C@@H](C)C(=O)NCC(=O)NCC(=O)NCC(=O)NCC(=O)N[C@@H](CCCNC(=N)N)C(=O)NCC(=O)N[C@@H](CC(=O)O)C(=O)O [X48] (X41-RGADRAGGGGRGD-OH) | 0.565
* C[C@H](NC(=O)CNC(=O)[C@H](CCCNC(=N)N)NC(=O)CCCCc1ccc(N2C(=O)C=CC2=O)cc1)C(=O)N[C@@H](CC(=O)O)C(=O)N[C@@H](CCCNC(=N)N)C(=O)N[C@@H](C)C(=O)NCC(=O)NCC(=O)NCC(=O)NCC(=O)N[C@@H](CCCNC(=N)N)C(=O)NCC(=O)N[C@@H](CC(=O)O)C(=O)O [X40] (X69-RGADRAGGGGRGD-OH) | 0.49
* C[C@H](NC(=O)CNC(=O)[C@H](CCCNC(=N)N)NC(=O)CCCCCCCOCCN1C(=O)C=CC1=O)C(=O)N[C@@H](CC(=O)O)C(=O)N[C@@H](CCCNC(=N)N)C(=O)N[C@@H](C)C(=O)NCC(=O)NCC(=O)NCC(=O)NCC(=O)N[C@@H](CCCNC(=N)N)C(=O)NCC(=O)N[C@@H](CC(=O)O)C(=O)O [X55] (X76-RGADRAGGGGRGD-OH) | 0.687

Could you now consider this next molecule?
Input C[C@H](NC(=O)CNC(=O)[C@H](CCCNC(=N)N)NC(=O)CCOCCOCCOCCN1C(=O)C=CC1=O)C(=O)N[C@@H](CC(=O)O)C(=O)N[C@@H](CCCNC(=N)N)C(=O)N[C@@H](C)C(=O)NCC(=O)NCC(=O)NCC(=O)NCC(=O)N[C@@H](CCCNC(=N)N)C(=O)NCC(=O)N[C@@H](CC(=O)O)C(=O)O [X64] (X15-RGADRAGGGGRGD-OH) . Output clearance: 0.517
